Cited source: ChEMBL document CHEMBL1201862

# Tested on: M14
# protocol.description: NCI tumour cell line growth inhibition, 48 h
The source made the active and inactive calls. No stated cut-off is given here; in the data, active = GI50 up to about 1.1 µM and inactive = higher.
Classes used: 1 for active, -1 for inactive

compound | assigned.label
CN1C(=O)c2ccc3ccccc3c2C1=O | -1
CN(C)CCNC(=O)c1cccc2nc3ccc4ccccc4c3nc12 | 1
CC1(C)C2CCC3CC(CCC#N)CCC3C21C#N (stereo not drawn) | -1
COc1cc(/C=C2/C(=O)N(C(=O)c3ccccc3O)N=C2C)ccc1O | 1
CCOC(=O)c1nc2c3c(ncn2n1)Oc1c(c(-c2ccccc2)nn1-c1ccccc1)C3c1ccc(OC)c(OC)c1 (stereo not drawn) | -1
Cc1nn(C(=O)CC(=O)Nc2ccccc2Cl)c(C)c1/N=N/c1ccccc1Cl | -1
CC(C)[C@@H]1NC(=O)[C@@H]2N=C(O[C@H]2C)[C@H](C(C)C)NC(=O)C2N=C1O[C@H]2C | -1
O=C(O)c1nn[nH]c1Cl | -1
c1ccc2c(c1)oc1ccc3nsnc3c12 | -1
COC(=O)C1=CC(O)CCC1c1ccc(OC)cc1 (stereo not drawn) | -1
O=C(O)c1cccc(OCCOc2cccc(C(=O)O)c2[N+](=O)[O-])c1[N+](=O)[O-] | -1
CC(C)(C)c1c2c(c(C(C)(C)C)c3c1OCN(Cc1ccccc1)C3)OCN(Cc1ccccc1)C2 | -1
O=C(O)c1ccc(Nc2nc3cc(C(F)(F)F)ccc3n3cccc23)cc1 | -1
CCO/N=C(/N)c1ncn(Cc2ccccc2)c1NCC(OCC)OCC | -1
Clc1cccc(C2N3CCCCC3[C@@H]3c4[nH]c5ccccc5c4CCN23)c1 (stereo partly drawn) | -1
O=C(O)Cc1nc[nH]c1C(=O)O | -1
C/C(=N/c1[nH]c(=O)cc2c1C(=O)CC2)N(C)C | -1
CC1C2(C)OCC(C#N)(C(=N)O2)C1(C#N)C#N (stereo not drawn) | -1

* * *

# Test system: SK-MEL-5
# protocol.description: NCI tumour cell line growth inhibition, 48 h
Activity calls are given as the source filed them. No stated cut-off is given here; in the data, active = GI50 up to about 1.1 µM and inactive = higher.
Classes used: yes for active, no for inactive

molecule | system | assigned.label
Cc1ccc(S(=O)(=O)NCCCSCCO)cc1 | SK-MEL-5 | no
C=C(C)[C@@H]1CC[C@]2(C(=O)O)CC[C@]3(C)[C@H](CC[C@@H]4[C@@]5(C)CC(=O)C(C)(C)[C@@H]5CC[C@]43C)[C@@H]12 | SK-MEL-5 | no
COc1ccc(OC)c2c(=S)c3ccccc3[nH]c12 | SK-MEL-5 | no
O=C([O-])C(O)C(O)C(O)C(O)C(=O)O.[K+] (stereo not given) | SK-MEL-5 | no
CCCCCCCC(=O)OC[C@H](C[As](=O)(O)O)OC(=O)CCCCCCC | SK-MEL-5 | no
O=S1(=O)OCCOS(=O)(=O)C1Br | SK-MEL-5 | no
COc1ccc(CCNC2=CC(=O)c3ncccc3C2=O)cc1OC | SK-MEL-5 | yes
CN1C(=O)c2ccc3ccccc3c2C1=O | SK-MEL-5 | no
Cc1c2cc[n+](C)cc2c(C)c2c1sc1ccccc12 | SK-MEL-5 | no
CC(C)NC(=O)OCCN=C1c2ccccc2C(Br)C(Br)c2ccccc21 (stereo not given) | SK-MEL-5 | no

* * *

Entries and their measured log10 GI50 follow.
# Tested on: HCT-15
value.type: log10 GI50 (log10 of the value in µM)

compound | log10 GI50
COc1cc(-c2c3c(cc4c2OCO4)[C@@H](Nc2ccc4c(c2)Cc2cc(N[C@@H]5c6cc7c(cc6C(c6cc(OC)c(O)c(OC)c6)[C@H]6C(=O)OC[C@H]56)OCO7)ccc2-4)[C@H]2COC(=O)[C@@H]2C3)cc(OC)c1O (some centres not stated) | 1.64
COC(=O)c1c(OC(C)=O)ccc2c1c1cc3ccccc3c(OC(C)=O)c1n2C | 1.36
CC(=O)CC[N+](C)(C)C | 1.36
O=c1oc2c(Cl)cc(Cl)cc2cc1C1=CSC2=NCCN12 | 1.65
Clc1cccc(C2N3CCCCC3[C@@H]3c4[nH]c5ccccc5c4CCN23)c1 (some centres not stated) | 1.68
CC(C)[Si](OCC/C=C/C1CCC(=O)C1C(O)C1CCCCC1)(C(C)C)C(C)C (configuration not stated) | 1.21
COc1cc2c(c(O)c1OC)C(=O)C1CCC(=O)N1C2c1cccc2ccccc12 (configuration not stated) | 1.62
COC(=O)[C@]12CC=C3O[C@@H]4OC5(CCCCC5)O[C@@H]4[C@H]3C1C(=O)C=CC2=O (some centres not stated) | 1.19
CC(C)NC(=O)OCCN=C1c2ccccc2C(Br)C(Br)c2ccccc21 (configuration not stated) | 0.99
N#CC1=C(S)N(C2OC(CO)C(O)C(O)C2O)C(c2ccccc2)=CC1c1ccccc1 (configuration not stated) | 1.27
COc1ccc(C(=O)/C=C/c2ccc(Oc3cc(C(=O)/C=C/c4ccc(O)cc4)c(O)cc3OC)cc2)c(O)c1 [RHUSCHALCONE I] | 0.39
N#CC(c1nc2ccccc2s1)c1ncnc(Cl)c1[N+](=O)[O-] (configuration not stated) | 1.25
CCCCCCCCCc1c(Cl)nc(Cl)nc1Cl | 1.09

* * *

# System: COLO 205
# protocol.description: NCI tumour cell line growth inhibition, 48 h
Activity calls are given as the source filed them. Cut-off read from the data, not from the text of the source: active = GI50 up to about 1.1 µM and inactive = higher.
Classes used: Yes for active, No for inactive

compound | system | assigned.label
CCOC(=O)/C=C1\Nc2ccccc2-n2nnnc21 | COLO 205 | No
C[N+]1(C)CCc2cc(O)c(O)cc2C1Cc1ccc(O)c(O)c1 (stereo not given) | COLO 205 | No
Cc1ccc(S(=O)(=O)N/N=c2\c(C)c(C3=NS(=O)(=O)c4cc(S(N)(=O)=O)c(Cl)cc4N3)oc3c(Cl)cc(Cl)cc23)cc1 | COLO 205 | No
CC(=O)O/C(C)=C\C(=O)O/N=C(\N)c1ccc(C)cc1 | COLO 205 | No
Cc1csc2nc3c(cnn3C)c(=S)n12 | COLO 205 | No
COc1cc(C2c3cc4c(cc3[C@@H](Nc3ccc5c(c3)OCCO5)C3COC(=O)[C@H]23)OCO4)cc(OC)c1O (stereo not given in full) | COLO 205 | Yes
COC(=O)C1(C(C)C)CCc2c(OC)ccc(OC)c2C1=O (stereo not given) | COLO 205 | No
CC(C(=O)O)/C(=C\c1ccc2c(c1)OCO2)C(=O)O (stereo not given) | COLO 205 | No
Oc1cccc(/C=N/N=c2/[nH][nH]/c(=N/N=C/c3cccc(O)c3)c3ccccc23)c1 | COLO 205 | No
O=C(Nc1sccc1S(=O)(=O)c1ccc(Cl)cc1)c1ccccc1 | COLO 205 | No
COc1ccc2c(c1)/C(=C(\C(Cl)=C(Cl)Cl)[N+](=O)[O-])N2 | COLO 205 | No
O=[N+]([O-])c1nccn1CC(O)CN1CC1 (stereo not given) | COLO 205 | No
CN(C)C(=S)N/N=C\C=N/NC(=S)N(C)C | COLO 205 | Yes
NC(=S)Nc1nnc(-c2ccc(-c3nnc(NC(N)=S)o3)cc2)o1 | COLO 205 | No
COC(=O)CCC(=O)Nc1ccc(Cl)cc1C | COLO 205 | No
Cc1nn(C(=O)CC(=O)Nc2ccccc2Cl)c(C)c1/N=N/c1ccccc1Cl | COLO 205 | No
OC1=CN=C(C2CC2)Oc2ccccc21 | COLO 205 | No
CN1C(=O)CCC1(O)C1C=CC=CC1 (stereo not given) | COLO 205 | No
CC(C)(C)C1CCC2c3c([nH]c4ccccc34)C3C(=O)N(c4ccccc4[N+](=O)[O-])C(=O)C3C2C1 (stereo not given) | COLO 205 | No
NNc1cnn(-c2ccccc2)c(=O)c1Cl | COLO 205 | No
COC(=O)[C@H](COC(C)(C)C)NC(=O)N[C@H](C)c1ccccc1 | COLO 205 | No
CN(C(=O)C1=CCC2(CC1)OCCO2)c1ccccc1I | COLO 205 | No
COc1ccc(CSc2ccccc2Cn2cccc2)cc1OC | COLO 205 | No
Cc1nn(C(=O)c2ccccc2O)c2c1C(c1ccccc1)SC(=N)N2 (stereo not given) | COLO 205 | No
CCOC(=O)c1nc2ccc(C(F)(F)F)cc2nc1Nc1ccc(F)cc1 | COLO 205 | No
COC(=O)Cc1ccc2c(c1)Sc1ccc(CC(=O)OC)cc1N2C | COLO 205 | No
O=C1OC2CCCC[C@@H]2C2C[C@]34CCCCC3[C@@H](C(=O)O4)C12 (stereo not given in full) | COLO 205 | No
COc1cc(C2c3cc4c(cc3OC(NNc3ccccc3)C2C)OCO4)cc(OC)c1OC (stereo not given) | COLO 205 | No
C[C@@H](Oc1ccc(Oc2cnc3ccc(Cl)cc3n2)cc1)C(=O)O [R(+)XK469] | COLO 205 | No
CS/C(=N\c1ccc([N+](=O)[O-])cc1C#N)NC(=O)c1ccccc1 | COLO 205 | No
